Biological target: Hematopoietic prostaglandin D synthase (Homo sapiens, UniProt O60760)
Sequence (O60760 whole entry): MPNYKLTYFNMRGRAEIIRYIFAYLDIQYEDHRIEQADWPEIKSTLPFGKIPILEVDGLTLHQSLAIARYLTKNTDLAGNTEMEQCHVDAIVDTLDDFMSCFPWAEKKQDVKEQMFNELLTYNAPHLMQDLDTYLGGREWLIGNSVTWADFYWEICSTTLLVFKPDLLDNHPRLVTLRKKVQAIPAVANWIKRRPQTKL
Experiment: Binding affinity to recombinant human H-PGDS incubated for 1 hrs by competitive fluorescence polarization assay
pIC50: −log10 of the molar value.
measured-quantity: pIC50

{"molecule": "Cn1cccc1C(=O)N1CCN(C(=O)Nc2ccc(N3CCC(C(=O)N4CCN(c5ccc6c(c5)C(=O)N(C5CCC(=O)NC5=O)C6=O)CC4)CC3)cc2)CC1 (stereo unspecified)", "measured-quantity": "pIC50", "numeric-result": 6.91}
{"molecule": "O=C(Nc1ccc(N2CCC(C(=O)N3CCOCC3)CC2)cc1)c1cnc(Oc2ccccc2)nc1", "measured-quantity": "pIC50", "numeric-result": 6.68}
{"molecule": "Cn1cccc1C(=O)N1CCN(C(=O)Nc2ccc(N3CCC(C(=O)N4CCOCC4)CC3)cc2)CC1", "measured-quantity": "pIC50", "numeric-result": 6.87}
{"molecule": "O=C1CCC(N2C(=O)c3ccc(N4CCN(C(=O)C5CCN(c6ccc(NC(=O)c7cnc(Oc8ccccc8)nc7)cc6)CC5)CC4)cc3C2=O)C(=O)N1 (stereo unspecified)", "measured-quantity": "pIC50", "numeric-result": 6.71}
{"molecule": "Cn1cccc1C(=O)N1CCN(C(=O)Nc2ccc(N3CCC(C(=O)N4CCN(c5cccc6c5C(=O)N(C5CCC(=O)NC5=O)C6=O)CC4)CC3)cc2)CC1 (stereo unspecified)", "measured-quantity": "pIC50", "numeric-result": 7.11}
{"molecule": "O=C1CCC(N2C(=O)c3cccc(N4CCN(C(=O)C5CCN(c6ccc(NC(=O)c7cnc(Oc8ccccc8)nc7)cc6)CC5)CC4)c3C2=O)C(=O)N1 (stereo unspecified)", "measured-quantity": "pIC50", "numeric-result": 6.93}

Reference source: ChEMBL document CHEMBL5108090
